Attribution: paper PMC8320603

test system: plasma proteins; assay: Human plasma rapid equilibrium dialysis; assay type: in vitro ADME; conditions: pooled human plasma, 4 h of shaking, 10 µM, monitored drug alone
Readings of RED Protein Binding, Binding (%) for the listed compounds
ASSAY_ENDPOINT: RED Protein Binding, Binding (%)

COMPOUND | TARGET_ENTITY | ASSAY_ENDPOINT | RESULT_VALUE
C#Cc1cccc(Nc2ncnc3cc(OCCOC)c(OCCOC)cc23)c1 | plasma proteins | RED Protein Binding, Binding (%) | 96 ± 0%
COc1cc2ncnc(Nc3ccc(F)c(Cl)c3)c2cc1OCCCN1CCOCC1 | plasma proteins | RED Protein Binding, Binding (%) | > 95%
CNCCC(Oc1ccc(C(F)(F)F)cc1)c1ccccc1 (stereo not shown) | plasma proteins | RED Protein Binding, Binding (%) | 95 ± 1%
CCCCc1nc(Cl)c(CO)n1Cc1ccc(-c2ccccc2-c2nn[nH]n2)cc1 | plasma proteins | RED Protein Binding, Binding (%) | > 95%

====

tested on: cryopreserved pooled human primary hepatocytes; conditions: 4 h incubation, 10 µM, monitored drug alone
ASSAY_ENDPOINT: Parent remain (%)

COMPOUND | TARGET_ENTITY | RESULT_VALUE
C#Cc1cccc(Nc2ncnc3cc(OCCOC)c(OCCOC)cc23)c1 | cryopreserved pooled human primary hepatocytes | 62 ± 13%
CCCCc1nc(Cl)c(CO)n1Cc1ccc(-c2ccccc2-c2nn[nH]n2)cc1 | cryopreserved pooled human primary hepatocytes | 77 ± 6%
CNCCC(Oc1ccc(C(F)(F)F)cc1)c1ccccc1 (stereo not shown) | cryopreserved pooled human primary hepatocytes | 75 ± 9%
COc1cc2ncnc(Nc3ccc(F)c(Cl)c3)c2cc1OCCCN1CCOCC1 | cryopreserved pooled human primary hepatocytes | 65 ± 2%
